Numbers sourced from paper PMC5668434.

Target: mTOR (FRAP1) (Homo sapiens, UniProt P42345)
Construct: purchased ThermoFisher PV4753
Sequence (P42345 1360-2549 limits assumed): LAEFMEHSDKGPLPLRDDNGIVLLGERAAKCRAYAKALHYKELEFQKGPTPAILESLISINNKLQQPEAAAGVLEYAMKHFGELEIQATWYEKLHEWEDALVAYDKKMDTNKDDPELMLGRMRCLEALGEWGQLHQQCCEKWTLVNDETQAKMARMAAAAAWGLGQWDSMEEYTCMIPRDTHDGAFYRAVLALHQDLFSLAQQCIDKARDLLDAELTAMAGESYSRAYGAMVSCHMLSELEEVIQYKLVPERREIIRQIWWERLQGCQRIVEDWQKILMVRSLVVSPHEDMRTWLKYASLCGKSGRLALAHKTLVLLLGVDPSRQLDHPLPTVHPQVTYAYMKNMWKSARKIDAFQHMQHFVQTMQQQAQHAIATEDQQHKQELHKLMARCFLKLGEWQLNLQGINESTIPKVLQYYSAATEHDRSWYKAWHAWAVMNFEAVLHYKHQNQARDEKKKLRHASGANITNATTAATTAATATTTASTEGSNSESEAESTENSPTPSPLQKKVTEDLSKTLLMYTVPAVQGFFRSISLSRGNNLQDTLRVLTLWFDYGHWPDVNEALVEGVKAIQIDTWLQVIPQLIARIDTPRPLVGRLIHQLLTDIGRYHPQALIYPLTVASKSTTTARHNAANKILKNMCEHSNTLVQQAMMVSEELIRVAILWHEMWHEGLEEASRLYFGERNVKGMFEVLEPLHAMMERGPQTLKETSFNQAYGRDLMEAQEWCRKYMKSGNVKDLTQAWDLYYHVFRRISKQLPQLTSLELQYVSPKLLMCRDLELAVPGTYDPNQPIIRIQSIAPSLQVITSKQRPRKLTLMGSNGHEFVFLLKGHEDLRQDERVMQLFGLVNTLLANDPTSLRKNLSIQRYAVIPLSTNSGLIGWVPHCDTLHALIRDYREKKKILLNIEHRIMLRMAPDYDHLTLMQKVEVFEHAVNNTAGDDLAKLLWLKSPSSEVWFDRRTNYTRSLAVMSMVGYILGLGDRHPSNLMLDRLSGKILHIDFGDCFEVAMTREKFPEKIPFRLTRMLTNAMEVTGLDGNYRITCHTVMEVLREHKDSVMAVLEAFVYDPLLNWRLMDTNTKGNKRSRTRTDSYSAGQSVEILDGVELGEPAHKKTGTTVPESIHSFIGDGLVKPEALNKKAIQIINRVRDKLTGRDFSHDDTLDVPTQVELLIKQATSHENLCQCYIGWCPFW
Assay: mTOR biochemical assay (LanthaScreen)
Settings: as given in the text
measured property: pIC50
Conceptually, pIC50 converts a concentration in mol/L into minus its log10.

Item: CS(=O)(=O)N1CCN(Cc2cc3c(N4CCOCC4)nc(-c4cnc(N)nc4)cn3n2)CC1 [ETP-47037] | System: mTOR (FRAP1) (Homo sapiens, UniProt P42345) | pIC50: 5.77

###

Below is a list of entries, each paired with its recorded IC50 value.
Biological target: PI3K (p110α) (Homo sapiens, UniProt P42336)
Sequence (P42336 whole entry): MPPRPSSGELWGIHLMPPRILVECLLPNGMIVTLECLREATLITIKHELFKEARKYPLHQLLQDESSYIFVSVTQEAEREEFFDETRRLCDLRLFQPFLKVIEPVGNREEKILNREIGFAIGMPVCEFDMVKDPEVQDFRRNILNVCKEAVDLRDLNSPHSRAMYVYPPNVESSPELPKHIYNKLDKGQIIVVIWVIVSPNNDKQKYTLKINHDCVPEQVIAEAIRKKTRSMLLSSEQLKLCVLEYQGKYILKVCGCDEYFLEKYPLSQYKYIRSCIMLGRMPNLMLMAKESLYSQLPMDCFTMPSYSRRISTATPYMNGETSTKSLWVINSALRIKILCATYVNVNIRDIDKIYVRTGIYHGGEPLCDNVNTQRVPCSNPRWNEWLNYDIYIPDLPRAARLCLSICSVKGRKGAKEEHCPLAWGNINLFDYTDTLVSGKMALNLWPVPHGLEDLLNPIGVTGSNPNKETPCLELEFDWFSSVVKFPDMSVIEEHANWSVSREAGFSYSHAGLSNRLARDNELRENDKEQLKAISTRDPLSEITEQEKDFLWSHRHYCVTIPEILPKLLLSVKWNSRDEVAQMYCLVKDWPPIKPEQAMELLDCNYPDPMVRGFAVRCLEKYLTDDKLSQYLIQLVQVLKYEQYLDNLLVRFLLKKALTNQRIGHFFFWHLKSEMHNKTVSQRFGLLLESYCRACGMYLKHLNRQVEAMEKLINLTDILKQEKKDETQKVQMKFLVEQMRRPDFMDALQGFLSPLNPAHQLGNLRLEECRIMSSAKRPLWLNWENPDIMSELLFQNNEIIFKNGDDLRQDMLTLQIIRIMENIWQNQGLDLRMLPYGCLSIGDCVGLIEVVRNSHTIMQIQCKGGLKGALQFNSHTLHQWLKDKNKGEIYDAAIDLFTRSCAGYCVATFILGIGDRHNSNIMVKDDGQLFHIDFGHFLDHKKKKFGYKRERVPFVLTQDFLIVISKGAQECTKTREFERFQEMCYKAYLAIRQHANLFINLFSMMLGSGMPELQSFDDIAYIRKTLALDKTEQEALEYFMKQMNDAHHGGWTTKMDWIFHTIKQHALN
Sequence (P27986 whole entry partner): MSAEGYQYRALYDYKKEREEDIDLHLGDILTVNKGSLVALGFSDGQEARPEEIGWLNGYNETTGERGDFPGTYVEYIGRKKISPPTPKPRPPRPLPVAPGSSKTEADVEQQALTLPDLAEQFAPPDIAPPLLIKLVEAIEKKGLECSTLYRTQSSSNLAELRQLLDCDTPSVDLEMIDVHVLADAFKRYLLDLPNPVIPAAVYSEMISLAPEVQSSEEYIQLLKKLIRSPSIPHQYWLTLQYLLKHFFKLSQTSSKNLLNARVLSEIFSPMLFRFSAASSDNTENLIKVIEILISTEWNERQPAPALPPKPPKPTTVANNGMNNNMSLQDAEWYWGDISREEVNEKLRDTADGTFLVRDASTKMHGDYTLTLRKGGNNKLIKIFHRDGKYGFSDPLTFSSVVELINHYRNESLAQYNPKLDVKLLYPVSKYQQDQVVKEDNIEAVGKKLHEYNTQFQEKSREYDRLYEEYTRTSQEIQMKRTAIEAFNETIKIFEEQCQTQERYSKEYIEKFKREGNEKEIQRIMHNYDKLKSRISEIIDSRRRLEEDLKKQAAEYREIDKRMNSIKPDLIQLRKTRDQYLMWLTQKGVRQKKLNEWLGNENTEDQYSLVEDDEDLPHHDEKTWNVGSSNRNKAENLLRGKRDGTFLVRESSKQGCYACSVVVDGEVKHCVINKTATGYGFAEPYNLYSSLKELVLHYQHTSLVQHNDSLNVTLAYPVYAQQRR

Some entries whose results are on file:
# molecule, tgt, measured property, result
records = [
    ("Cc1cnc2c(N3CCOCC3)nc(-c3ccc(NC(=O)Nc4ccc(C(=O)N5CCN(C)CC5)cc4)cc3)cn12", "PI3K (p110α) (Homo sapiens, UniProt P42336)", "IC50", "2.6 nM"),
    ("CS(=O)(=O)N1CCN(Cc2cc3c(N4CCOCC4)nc(-c4cnc(N)nc4)cn3n2)CC1", "PI3K (p110α) (Homo sapiens, UniProt P42336)", "IC50", "0.99 nM"),
    ("CS(=O)(=O)N1CCN(Cc2cc3c(N4CCCCC4)nc(-c4cnc(N)nc4)cn3n2)CC1", "PI3K (p110α) (Homo sapiens, UniProt P42336)", "IC50", "> 10000 nM"),
    ("NC1(c2ccc(-c3nc4ccn5c(=O)[nH]nc5c4cc3-c3ccccc3)cc2)CCC1 [MK-2206, reference compound]", "PI3K (p110α) (Homo sapiens, UniProt P42336)", "IC50", "34.3 nM"),
]

From here, focus on the item given below.
Value sought: IC50, system PI3K (p110α) (Homo sapiens, UniProt P42336), item Cc1cnc2c(N3CCCCC3)nc(-c3ccc(NC(=O)Nc4ccc(C(=O)N5CCN(C)CC5)cc4)cc3)cn12 . Result: 9000 nM
